# procedureDetails: folding enthalpy; higher = less favourable; fluorescence melt of hairpins on a sequencing array, two-state fit
# experimentalContext: sodium 0.088 M
metricName: folding enthalpy (kcal/mol)
Answer format: numeric, kcal/mol implied, no suffix.

Lab note: measured folding enthalpy of GTAGCCGAAAGGCCGTAC ((((((....)))..))) was -7.15

Lab note: measured folding enthalpy of GCCTGTGCGAAAGCAGGC (((..(((....)))))) was -26.6

Lab note: measured folding enthalpy of GTCCCTGGAAACAGGGGC (.(((((....))))).) was -27.5

Lab note: measured folding enthalpy of GCGGTGAGCCGC ((((....)))) was -23

Lab note: measured folding enthalpy of GGGCGCTCGAAAGAGCCC (((..(((....)))))) was -14

Lab note: measured folding enthalpy of GTCGTTGGAAACAATGAC (((.(((....))).))) was -32.5

Lab note: measured folding enthalpy of GTGGAAGGAAACTTTCAC (((.(((....))).))) was -33

====

# procedureDetails: folding enthalpy; higher = less favourable; fluorescence melt of hairpins on a sequencing array, two-state fit
# experimentalContext: sodium 0.088 M
metricName: folding enthalpy (kcal/mol)
Answer format: numeric, kcal/mol implied, no suffix.

Lab note: measured folding enthalpy of GCGGTCGAAAGACGCCGC ((((((....)))..))) was -19.9

Lab note: measured folding enthalpy of GATCCTGCAAGGATC ((((((...)))))) was -39.6

Lab note: measured folding enthalpy of GACCATGGAAACATAGTC (((.(((....))).))) was -19.8

====

# procedureDetails: melting temperature; fluorescence melt of hairpins on a sequencing array, two-state fit, raised by 9.35 °C to match UV melts
# experimentalContext: sodium 0.088 M
Assign class by Tm: not lower than 40 °C means yes (1); lower than 40 °C means no (0).

Examples from the recorded data:
{"columns": ["sequenceChain", "classAssignment"],
 "data": [
  ["GATAGACGAAAGTCAATC (((.(((....))).)))", "yes (1)"],
  ["GGCTCCGAAAGGACTGCC ((((((....)))..)))", "yes (1)"],
  ["GAGTCGGGAAACCGGCTC (((.(((....))).)))", "yes (1)"],
  ["GATCGTTAAACGATC ((((((...))))))", "yes (1)"],
  ["GCACTGCGAAAGCTCTGC (((..((....))..)))", "no (0)"]
]}

Quick check: does GGTTGGGGAAACCCAGTC (..((((....))))..) have Tm greater than or equal to 40 °C?
no (0)

Quick check: does GATCGTTTCACGATC ((((((...)))))) have Tm greater than or equal to 40 °C?
yes (1)

====

# procedureDetails: melting temperature; fluorescence melt of hairpins on a sequencing array, two-state fit, raised by 9.35 °C to match UV melts
# experimentalContext: sodium 0.088 M
metricName: Tm (°C)
Answer format: numeric, °C implied, no suffix.

Please review the following examples before continuing.
{"columns": ["sequenceChain", "valueMeasured"],
 "data": [
  ["GTTTGGCGAAAGCCAAC (((.(((....))))))", 48.7],
  ["GAGCAGGGAAACTTGCTC (((((.(....).)))))", 49],
  ["GGCCGAGCGAAAGCTGCC (((..(((....))))))", 50.7]
]}

For the next question, use this sequence.
Lab note: measured Tm of GCGTATAAACGC ((((....)))) was 50.4

====

# procedureDetails: melting temperature; fluorescence melt of hairpins on a sequencing array, two-state fit, raised by 9.35 °C to match UV melts
# experimentalContext: sodium 0.088 M
Each entry below lists one item and its recorded Tm value.
Answer format: numeric, °C implied, no suffix.

{"columns": ["sequenceChain", "unitOfMeasurement", "Tm"],
 "data": [
  ["GATCAGATGGCTGATC ((((((....))))))", "°C", 49.3],
  ["GGCCTGGGAAACCAGACC ((.((((....)))).))", "°C", 49],
  ["GATCCAACATGGATC ((((((...))))))", "°C", 50.4],
  ["GCTATGCGAAAGCGTTGC ((.(.((....)).).))", "°C", 48.9],
  ["GGGCTCGAAAGAGCTCCC ((((((....)))..)))", "°C", 50]
]}

Lab note: measured Tm of GGGTTCGAAAGAAGGCCC ((((((....)))..))) was 35.6

Lab note: measured Tm of GCAGACGAAAGTCCCTGC ((((((....)))..))) was 32.9

Lab note: measured Tm of GAAAACCGAAAGGTCTTC (((.(((....))).))) was 35.8

Lab note: measured Tm of GGGATAGGAAACTGTTCC ((.(.((....)).).)) was 28.6

Lab note: measured Tm of GATACTGAAAAGTATC ((((((....)))))) was 48.5

Lab note: measured Tm of GACCCCGAAAGGGAGGTC ((((((....)))..))) was 49.4

Lab note: measured Tm of GAGATCGCGAAAGCGCTC (((..(((....)))))) was 33.6

Lab note: measured Tm of GTGATACGAAAGTACAC (((.(((....)))))) was 43.7

Lab note: measured Tm of GCGACACTTCGC ((((....)))) was 52.1

Lab note: measured Tm of GTGTACGAAAGTAGACAC ((((((....)))..))) was 40.8

Lab note: measured Tm of GCCGTTCGAAAGAAGGGC (((.(((....))).))) was 60.2

Lab note: measured Tm of GTGTCTACGAAAGTACAC (((..(((....)))))) was 38.5

Lab note: measured Tm of GAGGACGAAAGTCTGCTC ((((((....)))..))) was 39.2

====

Each entry below lists one item and its recorded folding enthalpy value.
# procedureDetails: folding enthalpy; higher = less favourable; fluorescence melt of hairpins on a sequencing array, two-state fit
# experimentalContext: sodium 0.088 M
Answer format: numeric, kcal/mol implied, no suffix.

{"columns": ["sequenceChain", "folding enthalpy, kcal/mol"],
 "data": [
  ["GGAAGGGGAAACCCCTCC (((.(((....))).)))", -21.1],
  ["GTGTAGGGAAACTTACAC (((((.(....).)))))", -21.3],
  ["GGAGGTCGAAAGACGTCC (((.(((....))).)))", -37.7]
]}

Lab note: measured folding enthalpy of GGTAAGGGAAACCCTACC ((((.((....)).)))) was -24.3

Lab note: measured folding enthalpy of GTGTGCGAAAGCAAGCAC ((((((....)))..))) was -18.9

Lab note: measured folding enthalpy of GACACGGGAAACCACGTC (((..((....))..))) was -29

Lab note: measured folding enthalpy of GCGTTAGGAAACTAATGC ((.((((....)))).)) was -43.2

====

# procedureDetails: melting temperature; fluorescence melt of hairpins on a sequencing array, two-state fit, raised by 9.35 °C to match UV melts
# experimentalContext: sodium 0.088 M
Assign class by Tm: not lower than 40 °C means 1 (yes); lower than 40 °C means 0 (no).

{"columns": ["sequenceChain", "classAssignment"],
 "data": [
  ["GGTATCGAAAGATACACC ((((((....)))..)))", "1 (yes)"],
  ["GGTCTGCGAAAGCAAACC (((.(((....))).)))", "1 (yes)"],
  ["GCAAAGCGAAAGCATTGC ((((.((....)).))))", "1 (yes)"],
  ["GTGATCGGAAACGATCAC (((((((....)))))))", "1 (yes)"],
  ["GAAAGCGAAAGCTGTTTC ((((((....)))..)))", "0 (no)"]
]}

Quick check: does GCTTTGGGAAACCAAAGC (((((((....))))))) have Tm greater than or equal to 40 °C?
1 (yes)

Quick check: does GCCGGCGAAAGCCCGGGC ((((((....)))..))) have Tm greater than or equal to 40 °C?
1 (yes)

Quick check: does GGGAAGCGAAAGCTCCCC (((.(((....))).))) have Tm greater than or equal to 40 °C?
1 (yes)

Quick check: does GTGACCGAAAGGTTACAC ((((((....)))..))) have Tm greater than or equal to 40 °C?
1 (yes)

Quick check: does GGTATCGAAAGATACC ((((((....)))))) have Tm greater than or equal to 40 °C?
1 (yes)

Quick check: does GTATAAGAAATTATAC ((((((....)))))) have Tm greater than or equal to 40 °C?
0 (no)

Quick check: does GCCCCTGGAAACAGGAGC ((.((((....)))).)) have Tm greater than or equal to 40 °C?
1 (yes)

Quick check: does GTGTTCGGAAACGAGTAC ((..(((....)))..)) have Tm greater than or equal to 40 °C?
0 (no)

Quick check: does CGTACGGAAACGTATACG ((((((....)))..))) have Tm greater than or equal to 40 °C?
0 (no)

Quick check: does GTCGGGAAACCGAC (((((....))))) have Tm greater than or equal to 40 °C?
1 (yes)

Quick check: does GTACTCGAAAGAGCATAC ((((((....)))..))) have Tm greater than or equal to 40 °C?
0 (no)

Quick check: does GCGGGGATCCGC ((((....)))) have Tm greater than or equal to 40 °C?
1 (yes)

Quick check: does GATCTGACCTCAGATC ((((((....)))))) have Tm greater than or equal to 40 °C?
1 (yes)
